# test-summary: Cytotoxicity against rat IEC-6 cells assessed as survival rate at 10 uM after 48 hrs by MTT assay relative to control
# Type: cell-based
# cond: read-out: Survival
readout-label: viability at 48 h, 10 µM (%)
Kindly provide the numeric value in % only, without the unit symbol.

Record O=Cc1ccc2n1CCc1c([nH]c3ccccc13)C2 , field viability at 48 h, 10 µM: 79.6

====

# System: NCI-H1650
# test-summary: Growth inhibition of human NCI-H1650 cells after 96 hrs by MTT assay
# Assay type: functional, cell-based
# cond: NCI-H1650, 96 h
readout-label: IC50

O=Cc1ccc2n1CCc1c([nH]c3ccccc13)C2 | 2.86 µM
CCOCc1ccc(C=O)n1CCc1ccc(O)cc1 | > 10 µM
Nc1ncnc2c1ncn2[C@@H]1CCC(=O)c2cccc(O)c21 | > 10 µM
CC(=O)O[C@H]1C(=O)[C@@]2(C)[C@H]([C@H](OC(=O)c3ccccc3)[C@]3(O)C[C@H](OC(=O)[C@H](O)[C@@H](NC(=O)c4ccccc4)c4ccccc4)C(C)=C1C3(C)C)[C@]1(OC(C)=O)CO[C@@H]1C[C@@H]2O | > 1 µM
COc1ccc2c(c[n+](C)c3c4cc5c(cc4ccc23)OCO5)c1O | 1.75 µM

We next turn to a different molecule, shown below.
Record O=C1CC[C@H](c2c[nH]c3ccccc23)c2c(O)ccc(O)c21 , field IC50: > 10 µM

====

Reported IC50 is given for each of the following compounds.
# Test system: HCT-116
# test-summary: Growth inhibition of human HCT116 cells after 96 hrs by MTT assay
# Assay type: functional, cell-based
# cond: HCT-116, 96 h

Examples with their reported IC50 follow.
NC(=O)[C@@H]1CCC(=O)c2cccc(O)c2N1 | > 10 µM
Nc1ncnc2c1ncn2[C@H]1CCC(=O)c2cccc(O)c21 | > 10 µM
NC(=O)[C@H]1CCC(=O)c2cccc(O)c2N1 | > 10 µM
O=C1CCC(c2c[nH]c3ccccc23)c2c(O)ccc(O)c21 (racemic) | > 10 µM
O=C1CC[C@@H]2c3c([nH]c4ccccc34)CCN12 | > 10 µM

GET /values?item= O=Cc1ccc2n1CCc1c([nH]c3ccccc13)C2 &system= HCT-116 returns IC50: 2.87 µM

GET /values?item= Nc1ncnc2c1ncn2C1CCC(=O)c2c(O)ccc(O)c21 (racemic) &system= HCT-116 returns IC50: > 10 µM

GET /values?item= Nc1ncnc2c1ncn2[C@@H]1CCC(=O)c2c(O)ccc(O)c21 &system= HCT-116 returns IC50: > 10 µM

GET /values?item= O=C1CCC2c3c([nH]c4ccccc34)CCN12 (racemic) &system= HCT-116 returns IC50: > 10 µM

GET /values?item= CCOCc1ccc(C=O)n1CCc1ccc(O)cc1 &system= HCT-116 returns IC50: > 10 µM

GET /values?item= O=C1CC[C@@H](c2c[nH]c3ccccc23)c2c(O)ccc(O)c21 &system= HCT-116 returns IC50: > 10 µM

GET /values?item= O=C1CC[C@H]2c3c([nH]c4ccccc34)CCN12 &system= HCT-116 returns IC50: > 10 µM

GET /values?item= COc1ccc2c(c[n+](C)c3c4cc5c(cc4ccc23)OCO5)c1O &system= HCT-116 returns IC50: 3.94 µM

GET /values?item= Nc1ncnc2c1ncn2[C@H]1CCC(=O)c2c(O)ccc(O)c21 &system= HCT-116 returns IC50: > 10 µM

====

# System: NCI-H1650
# test-summary: Growth inhibition of human NCI-H1650 cells after 96 hrs by MTT assay
# Format: functional, cell-based
# cond: NCI-H1650, 96 h
pIC50: −log10 of the molar value.
Reported pIC50 is given for each of the following molecules.

Examples with their reported pIC50 follow.
O=C1CC[C@@H]2c3c([nH]c4ccccc34)CCN12 | < 5.00
Nc1ncnc2c1ncn2[C@@H]1CCC(=O)c2c(O)ccc(O)c21 | < 5.00

Record O=C1CCC(c2c[nH]c3ccccc23)c2c(O)ccc(O)c21 (racemic) , field pIC50: < 5.00

====

Reported IC50 is given for each of the following compounds.
# Test system: HCT-116
# test-summary: Growth inhibition of human HCT116 cells after 96 hrs by MTT assay
# Type: functional, cell-based
# cond: HCT-116, 96 h

Examples with their reported IC50 follow.
NC(=O)C1CCC(=O)c2cccc(O)c2N1 (racemic) | > 10 µM
O=C1CC[C@H](c2c[nH]c3ccccc23)c2c(O)ccc(O)c21 | > 10 µM
Nc1ncnc2c1ncn2[C@@H]1CCC(=O)c2cccc(O)c21 | > 10 µM

GET /values?item= Nc1ncnc2c1ncn2C1CCC(=O)c2cccc(O)c21 (racemic) &system= HCT-116 returns IC50: > 10 µM

GET /values?item= CC(=O)O[C@H]1C(=O)[C@@]2(C)[C@H]([C@H](OC(=O)c3ccccc3)[C@]3(O)C[C@H](OC(=O)[C@H](O)[C@@H](NC(=O)c4ccccc4)c4ccccc4)C(C)=C1C3(C)C)[C@]1(OC(C)=O)CO[C@@H]1C[C@@H]2O &system= HCT-116 returns IC50: 0.0002 µM
